For each entry below, report its AUC(0-t) value.
Experiment: Pharmacokinetic determination in SD rats
Type: in vivo
Conditions: rat, 2 mg/kg; female SD rats, IV (2 mpk), plasma; read-out: Area under the curve AUC0-t
Method: Test Example 3: Pharmacokinetic Determination in SD Rats In this study, female SD rats were selected as test animals. The LC/MS/MS method was used to quantitatively determine the plasma drug concentrations of the test compounds at different time points after intravenous injection (2 mg/kg) or oral administration (5 mg/kg) in rats, so as to evaluate the pharmacokinetic profile of the test drugs in rats. The example compounds of the present disclosure, made in house. […]
Please reply with the bare figure in ng·h/mL and do not write the unit itself.

Give its AUC(0-t) value. Item: `CO/N=C1/C[C@@H](CO)N(C(=O)c2ccc(-c3cccc(C#N)c3Cl)cc2)C1`
7160

Give its AUC(0-t) value. Item: `CO/N=C1/C[C@@H](CO)N(C(=O)c2ccc(-c3cccc(C#N)c3C)cc2)C1`
4640

Give its AUC(0-t) value. Item: CO/N=C1/C[C@@H](CO)N(C(=O)c2ccc(-c3ccccc3C)cc2)C1 [Nolasiban, reference compound]
3050

###

target: OTR (Homo sapiens, UniProt P30559); assay: Ca2+ mobilization in cells stably expressing OTR (FLIPR, antagonist mode); details: OTR/HEK293 stably transfected cell line
Sequence (P30559 whole entry, species assumed): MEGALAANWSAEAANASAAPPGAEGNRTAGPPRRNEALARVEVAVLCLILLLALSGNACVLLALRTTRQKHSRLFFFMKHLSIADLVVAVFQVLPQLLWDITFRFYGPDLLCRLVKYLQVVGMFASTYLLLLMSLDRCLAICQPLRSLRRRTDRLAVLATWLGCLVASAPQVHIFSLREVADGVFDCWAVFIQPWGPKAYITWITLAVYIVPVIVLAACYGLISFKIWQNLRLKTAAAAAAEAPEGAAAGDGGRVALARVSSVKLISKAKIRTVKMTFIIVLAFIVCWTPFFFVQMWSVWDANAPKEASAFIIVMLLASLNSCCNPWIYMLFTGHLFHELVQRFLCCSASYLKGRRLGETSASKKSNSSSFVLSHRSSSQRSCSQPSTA
Met if IC50 is below 100 nM. Not met if not; exact matches included in Not met.

Please check: IC50 for CO/N=C1/C[C@@H](COCCO)N(C(=O)c2ccc(-c3ccccc3C)cc2)C1 [Example C0017] , strictly under 100 nM or not?
Not met

Please check: IC50 for CON=C1CC(C(=O)NCC(O)c2ccccc2)N(C(=O)c2ccc(-c3cccc(C#N)c3C)cc2)C1 (single isomer, unassigned) [Example A0229] , strictly under 100 nM or not?
Not met

Please check: IC50 for CO/N=C1/C[C@@H](CO)N(C(=O)c2ncc(-c3cccc(C)c3C)cc2OC)C1 [Example C0081] , strictly under 100 nM or not?
Not met

Please check: IC50 for CO/N=C1/C[C@@H](CO)N(C(=O)c2ncc(-c3cccc(C)c3C)c(C(F)(F)F)n2)C1 [Example C0087] , strictly under 100 nM or not?
Not met

Please check: IC50 for CO/N=C1/CC[C@@H](CO)N(C(=O)c2ccc(-c3cccc(C#N)c3C)cc2)C1 [Example A0225] , strictly under 100 nM or not?
Not met

Please check: IC50 for CO/N=C1\C[C@@H](CO)N(C(=O)c2ccc(-c3cccc(C#N)c3C)c3c2OCCO3)C1 [Example C0132] , strictly under 100 nM or not?
Met

Please check: IC50 for CO/N=C1/C[C@@H](CO)N(C(=O)c2ccc(-c3cccc(C#N)c3C)c3c2cnn3C)C1 [Example A0167] , strictly under 100 nM or not?
Met

###

assay: Blood-brain distribution determination in SD rats; assay type: in vivo; details: female SD rats, oral, 5 mg/kg
Decision: Brain tissue area under the curve AUC0-t compared against 1000 ng·h/g; not below it gives true (1), below it gives false (0).

Could you verify whether the entry CON=C1CC(CO)N(C(=O)c2ccc(-c3cccc(C#N)c3C)c3c2OCO3)C1 (single isomer, unassigned) [Example C0099] shows Brain tissue area under the curve AUC0-t of no less than 1000 ng·h/g?
false (0)

Could you verify whether the entry CO/N=C1/C[C@@H](CO)N(C(=O)c2ccc(-c3cccc(C#N)c3Cl)cc2)C1 [Example A0203] shows Brain tissue area under the curve AUC0-t of no less than 1000 ng·h/g?
true (1)

Could you verify whether the entry CO/N=C1/C[C@@H](CO)N(C(=O)c2ccc(-c3cc(F)cc(C#N)c3C)c3c2OCCO3)C1 [Example C0152] shows Brain tissue area under the curve AUC0-t of no less than 1000 ng·h/g?
false (0)

Could you verify whether the entry CO/N=C1/C[C@@H]([C@@H](C)O)N(C(=O)c2ccc(-c3cccc(C#N)c3C)cc2)C1 (single isomer, unassigned) [Example C0112] shows Brain tissue area under the curve AUC0-t of no less than 1000 ng·h/g?
false (0)

Could you verify whether the entry CO/N=C1/C[C@@H](CO)N(C(=O)c2ccc(-c3cccc(C#N)c3C)cc2)C1 [Example C0058] shows Brain tissue area under the curve AUC0-t of no less than 1000 ng·h/g?
true (1)

###

target: OTR (Homo sapiens); experiment: Ca2+ mobilization in cells stably expressing OTR (FLIPR, antagonist mode); conditions: OTR/HEK293 stably transfected cell line
For each entry below, report its pIC50 value.
Please keep in mind that pIC50 is minus log10 of the molar concentration; only the number is needed.

Give its pIC50 value. Item: CON=C1CC(CO)N(C(=O)c2ccc(-c3cccc(C#N)c3C)c3c2OCO3)C1 (single isomer, unassigned) [Example C0098]
7.25

Give its pIC50 value. Item: `CON=C1C[C@@H](c2nc3ccccc3o2)N(C(=O)c2ccc(-c3ccccc3C)cc2)C1`
6.62

Give its pIC50 value. Item: CON=C1CC(CO)N(C(=O)c2ccc(-c3cccc(C#N)c3C)c3c2OCO3)C1 (single isomer, unassigned) [Example C0099]
7.76

Give its pIC50 value. Item: `CO/N=C1/C[C@@H](CO)N(C(=O)c2ccc(-c3cccc(C)c3C)cc2)C1`
7.49

Give its pIC50 value. Item: `CO/N=C1/C[C@@H](CO)N(C(=O)c2ccc(-c3cccc(C#N)c3C(F)(F)F)cc2)C1`
6.99

Give its pIC50 value. Item: `CO/N=C1/C[C@@H](CO)N(C(=O)c2ccc(-c3cccc(C#N)c3C)s2)C1`
6.42

Give its pIC50 value. Item: `CO/N=C1/C[C@@H](CO)N(C(=O)c2ccc(-c3cccc(C)c3C)cc2OC)C1`
7.87

Give its pIC50 value. Item: `CO/N=C1/C[C@@H](CO)N(C(=O)c2ccc(-c3ccccc3C)cn2)C1`
6.05

Give its pIC50 value. Item: `CNC(=O)[C@@H]1C/C(=N/OC)CN1C(=O)c1ccc(-c2cccc(C#N)c2C)cc1`
6.36

Give its pIC50 value. Item: `CO/N=C1/C[C@@H](CO)N(C(=O)c2cnc(-c3cccc(C)c3C)c(C(F)(F)F)n2)C1`
6.82

Give its pIC50 value. Item: `CO/N=C1/C[C@@H](CO)N(C(=O)c2ccc(-c3cccc(C(F)(F)F)c3C)cc2)C1`
7.75

Give its pIC50 value. Item: `CO/N=C1\C[C@@H](CO)N(C(=O)c2ccc(-c3cccc(C)c3C)cc2C#N)C1`
6.31

Give its pIC50 value. Item: `CO/N=C1\C[C@@H](CO)N(C(=O)c2ccc(-c3ccc(F)c(C#N)c3C)c3c2OCCO3)C1`
6.80

Give its pIC50 value. Item: `CO/N=C1\CC[C@@H](CO)N(C(=O)c2ccc(-c3cccc(C#N)c3C)cc2)C1`
6.62

Give its pIC50 value. Item: `CO/N=C1\CCN(C(=O)c2ccc(-c3cccc(C#N)c3C)cc2)[C@H](CO)C1`
5.98

Give its pIC50 value. Item: CON=C1C[C@@H](CO)N(C(=O)c2ccc3c(c2)COCc2c(C#N)cccc2-3)C1 (single isomer, unassigned)
5.53

Give its pIC50 value. Item: `CO/N=C1/C[C@@H](CO)N(C(=O)c2ccc(-c3cccc(C)c3C)c3c2CCC3)C1`
7.95

Give its pIC50 value. Item: `CO/N=C1\C[C@@H](CO)N(C(=O)c2ccc(-c3cccc(C#N)c3C)cc2F)C1`
7.13

Give its pIC50 value. Item: CO/N=C1/C[C@@H](C(C)O)N(C(=O)c2ccc(-c3ccccc3C)cc2)C1 (mixture of isomers)
7.89

Give its pIC50 value. Item: `CO/N=C1/C[C@@H](CO)N(C(=O)c2cc(C(F)(F)F)c(-c3cccc(C)c3C)cn2)C1`
6.63

Give its pIC50 value. Item: `CO/N=C1/C[C@@H](CO)N(C(=O)c2ccc(-c3cccc(C)c3C)c(OCCO)c2)C1`
7.46

Give its pIC50 value. Item: `CO/N=C1\CN(C(=O)c2ccc(-c3ccccc3C)cc2)C2(COC2)C1`
6.24

Give its pIC50 value. Item: CON=C1CN(C(=O)c2ccc(-c3ccccc3C)cc2)C2COCCN12 (mixture of isomers)
5.72

Give its pIC50 value. Item: `CO/N=C1/C[C@@H](CO)N(C(=O)c2ccc(-c3cccc(C#N)c3C)c3c2OCCCO3)C1`
7.64

Give its pIC50 value. Item: `CO/N=C1/C[C@@H](CNC(=O)OC)N(C(=O)c2ccc(-c3ccccc3C)cc2)C1`
6.27

Give its pIC50 value. Item: `CO/N=C1/C[C@@H](CO)N(C(=O)c2ccc(-c3cccc(C)c3C)c(C(F)F)c2)C1`
7.88

Give its pIC50 value. Item: `CO/N=C1/C[C@@H](CO)N(C(=O)c2ccc(-c3cccc(C(F)F)c3C)c3c2OCO3)C1`
7.48

Give its pIC50 value. Item: CO/N=C1/CC2(CO)CCC1N2C(=O)c1ccc(-c2ccccc2C)cc1 (single isomer, unassigned)
5.97

Give its pIC50 value. Item: `CO/N=C1/C[C@@H](CO)N(C(=O)c2cnc(-c3ccccc3C)cn2)C1`
6.07

Give its pIC50 value. Item: `CO/N=C1/C[C@@H](CO)N(C(=O)c2ccc(-c3cccc(C#N)c3C)cc2)C1`
7.75
